Overview of reported inhibition at 1 µM across a group of compounds:
molecular target: β-secretase(BACE) (Homo sapiens, UniProt P56817); construct: purchased Panvera; assay: BACE FS1% Inhibition Assay; type: biochemical; settings: 1 μM test compound; FS1 substrate; read-out: % Inhibition (FS)
Sequence (P56817 46-501): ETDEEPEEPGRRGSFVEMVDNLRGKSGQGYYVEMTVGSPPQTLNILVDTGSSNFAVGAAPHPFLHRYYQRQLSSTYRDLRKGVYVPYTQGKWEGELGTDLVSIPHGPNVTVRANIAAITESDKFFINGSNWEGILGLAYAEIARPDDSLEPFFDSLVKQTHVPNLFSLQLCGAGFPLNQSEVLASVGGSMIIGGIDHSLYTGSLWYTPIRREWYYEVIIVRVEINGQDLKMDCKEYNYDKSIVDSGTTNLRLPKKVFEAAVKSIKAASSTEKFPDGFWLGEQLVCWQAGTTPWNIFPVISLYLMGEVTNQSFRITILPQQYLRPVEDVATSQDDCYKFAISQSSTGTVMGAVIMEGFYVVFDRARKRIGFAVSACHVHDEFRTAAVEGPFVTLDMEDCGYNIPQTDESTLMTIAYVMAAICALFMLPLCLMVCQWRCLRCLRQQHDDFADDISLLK
outcomeMeasure: inhibition at 1 µM (%)

compound: CN(C(=O)CC[C@@H](C1CCCCC1)N1Cc2cc(Oc3ccccc3)ccc2N=C1N)C1CCC(C(=O)O)CC1 (some centres unmarked) [Compound 714]
modifier: =
recordedNumber: 126
//
compound: NC1=Nc2ccc(Oc3ccccc3)cc2CN1[C@@H](CCC(=O)N(Cc1nnn[nH]1)C1CCCCC1)C1CCCCC1 [Compound 787]
modifier: =
recordedNumber: 109
//
compound: CC(C)(C)OC[C@@H](NC(=O)CC[C@@H](C1CCOCC1)N1Cc2cc(Oc3ccccc3)ccc2N=C1N)C(=O)O [Compound 774]
modifier: =
recordedNumber: 120
//
compound: COC1CCCC(C(=O)NCCN2Cc3cc(-c4ccccc4Cl)ccc3N=C2N)C1 (centres unmarked) [Compound 692]
modifier: =
recordedNumber: 90
//
compound: NC1=Nc2ccc(Oc3ccccc3)cc2CN1Cc1cccc(C(=O)O)c1 [Compound 805]
modifier: <
recordedNumber: 30
//
compound: NC1=Nc2ccc(Br)cc2CN1CCNC(=O)C1CCCCC1 [Compound 806]
modifier: <
recordedNumber: 30
//
compound: NC1=Nc2ccc(Oc3ccccc3)cc2CN1[C@@H](CCC(=O)N(CCO)C1CCCCC1)C1CCCCC1 [Compound 736]
modifier: =
recordedNumber: 134
//
compound: COC(=O)[C@H]1CC[C@@H](N(C)C(=O)CC[C@@H](C2CCCCC2)N2Cc3cc(Oc4ccccc4)ccc3N=C2N)CC1 [Compound 761]
modifier: =
recordedNumber: 91
//
compound: CN(C(=O)CC[C@@H](C1CCCCC1)N1Cc2c(cccc2Oc2ccccc2)N=C1N)C1CCCCC1 [Compound 753]
modifier: =
recordedNumber: 47
//
compound: NC1=Nc2ccc(Oc3ccccc3)cc2CN1[C@@H](CCC(=O)N(Cc1ccncc1)C1CCCCC1)C1CCCCC1 [Compound 789]
modifier: =
recordedNumber: 99
//
compound: CN(C(=O)CC[C@@H](C1CCC2(CC1)OCCO2)N1Cc2cc(Oc3ccccc3)ccc2N=C1N)C1CCCCC1 [Compound 730]
modifier: =
recordedNumber: 109
//
compound: CN(C(=O)CC[C@@H](C1CCCCC1)N1Cc2cc(Oc3ccccc3)ccc2N=C1N)[C@H]1CC[C@@H](C(N)=O)CC1 [Compound 764]
modifier: =
recordedNumber: 110
//
compound: COc1ccccc1-c1ccc2c(c1)CN([C@@H](CCC(=O)N(C)CCC#N)C1CCCCC1)C(N)=N2 [Compound 720]
modifier: =
recordedNumber: 93
//
compound: NC1=Nc2ccc(Oc3ccccc3)cc2CN1[C@@H](CCC(=O)N[C@H](CO)C(=O)O)C1CCOCC1 [Compound 773]
modifier: =
recordedNumber: 111
//
compound: CN(C(=O)CCC(C1CCCCC1)N1Cc2cc(Oc3ccccc3)ccc2N=C1N)C1CCC(O)CC1 (centres unmarked) [Compound 712]
modifier: =
recordedNumber: 104
//
compound: N#Cc1cccc(C(=O)NCCN2Cc3cc(Br)ccc3N=C2N)c1 [Compound 807]
modifier: <
recordedNumber: 30
//
compound: COc1ccccc1-c1ccc2c(c1)CN([C@@H](CCC(=O)N(C)CCc1ccccc1)C1CCCCC1)C(N)=N2 [Compound 721]
modifier: =
recordedNumber: 66
//
compound: NC1=Nc2ccc(Oc3ccccc3)cc2CN1[C@@H](CCC(=O)N[C@@H](CO)C(=O)O)C1CCOCC1 [Compound 771]
modifier: =
recordedNumber: 79
//
compound: CN(C(=O)CC[C@@H](C1CCOCC1)N1Cc2cc(Oc3ccccc3)ccc2N=C1N)[C@H](COCc1ccccc1)C(=O)O [Compound 784]
modifier: =
recordedNumber: 108
//
compound: COC(=O)[C@H](COCc1ccccc1)NC(=O)CC[C@@H](C1CCOCC1)N1Cc2cc(Oc3ccccc3)ccc2N=C1N [Compound 785]
modifier: =
recordedNumber: 91
//
compound: NC1=Nc2ccc(Oc3ccccc3)cc2CN1[C@@H](CCC(=O)N(CCO)[C@H]1CC[C@@H](C(=O)O)CC1)C1CCCCC1 [Compound 749]
modifier: =
recordedNumber: 112
//
compound: NC1=Nc2ccc(Oc3ccccc3)cc2CN1[C@@H](CCC(=O)N(CC(=O)O)C1CCCCC1)C1CCCCC1 [Compound 768]
modifier: =
recordedNumber: 120
//
compound: NC1=Nc2ccc(Br)cc2CN1CCC(=O)NC12CC3CC(CC(C3)C1)C2 [Compound 804]
modifier: <
recordedNumber: 30
//
compound: CN(C(=O)CC[C@@H](C1CCC(=O)CC1)N1Cc2cc(Oc3ccccc3)ccc2N=C1N)C1CCCCC1 [Compound 732]
modifier: =
recordedNumber: 135
//
compound: CN(C(=O)CC[C@@H]([C@H]1CC[C@@H](O)CC1)N1Cc2cc(Oc3ccccc3)ccc2N=C1N)C1CCCCC1 [Compound 731]
modifier: =
recordedNumber: 114
//
compound: Cc1cc(CN(C)C(=O)CC[C@@H](C2CCCCC2)N2Cc3cc(-c4ccccc4F)ccc3N=C2N)on1 [Compound 723]
modifier: =
recordedNumber: 63
//
compound: COc1cccc(CCNC(=O)CCC(C2CCCCC2)N2Cc3cc(F)ccc3N=C2N)c1 (centres unmarked) [Compound 810]
modifier: <
recordedNumber: 30
//
compound: COC(=O)[C@H]1CC[C@@H](N(C)C(=O)CC[C@@H](C2CCOCC2)N2Cc3cc(Oc4ccccc4)ccc3N=C2N)CC1 [Compound 744]
modifier: =
recordedNumber: 108
//
compound: CN(C(=O)CCC(C1CCCCC1)N1Cc2cc(Oc3ccccc3)ccc2N=C1N)C1CCCC(C(=O)O)C1 (centres unmarked) [Compound 776]
modifier: =
recordedNumber: 95
